The measurements presented in this section are drawn from ChEMBL document CHEMBL6087398.

- system.under.test: Acetylcholinesterase (Electrophorus electricus)
- experiment.summary: Inhibition of electric eel AChE using acetylthiocholine iodide as substrate preincubated with enzyme for 20 mins followed by substrate addition and measured after 20 mins by Ellman's method
- Set-up: concentration or dose not given beside the values
- measurement.setup: time 40.0 min
reported.metric: inhibition

Give inhibition for all compounds that follow.
1. COc1ccc(C(C)=O)c(OC(=O)N(C)Cc2ccccc2)c1
2. Cc1ccc(C(C)C)cc1OC(=O)N(C)C
3. COc1ccc(C(C)=O)c(OC(=O)Nc2ccc(Cl)cc2)c1
4. COc1ccc(C(C)=O)c(OC(=O)N(C)Cc2ccc(Cl)cc2)c1
5. CNC(=O)Oc1cc(C(C)C)ccc1C
6. C=CCc1ccc(OC(=O)N(C)Cc2ccccc2)c(OC)c1

# output
1: 6.6%; 2: 62%; 3: 4.6%; 4: 5.8%; 5: 56%; 6: 25%
